The values you see were collected from patent US20060160201A1.

- TEST TARGET: T1, Human MEF2B (residues 1-93 of SEQ ID NO:2) (human, UniProt Q02080 1-93)
- T1 construct: Symmetric homodimer; In ITC it was used free; For the crystals it was expressed as a fusion with Cabin1 (cleaved with PreScission protease) or with MITR; also called MEF2B (1-93); MADS-box/MEF2S domain
- T1 sequence: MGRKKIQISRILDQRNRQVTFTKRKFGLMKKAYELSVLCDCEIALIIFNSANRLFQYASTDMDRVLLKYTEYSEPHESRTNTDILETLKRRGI
- ASSAY: ITC, 30 °C, mutant (1.5 mM) titrated into 50 µM MEF2B (1-93), corrected for heat of dilution; Phe178Ala mutant, 1.5 mM, corrected for heat of dilution
pKd: −log10 of the molar value.
EXPERIMENTAL READOUT: pKd

BINDER: HDAC4 (155-220) Phe178Ala mutant (other, Made and purified like the wild type (pET28a, nickel agarose)) LKNKEKGKESAVASTEVKMKLQEAVLNKKKALAHRNLNHCISSDPRYWYGKTQHSSLDQSSPPQSG
VALUE MEASURED: ~5.30
